Test system: autologous cell line LB-831-EBV pulsed with MAGE-A12 peptides, lysis by CTL 501D/19 (HLA-Cw*07 restricted)
experimental-protocol: Chromium release cytotoxicity assay with peptide-pulsed cells
Assay type: cell-based, human
study-conditions: LB-831-EBV cells pulsed 30 min; effector to target ratio of 10; chromium release after 4 hours; read-out: peptide concentration giving half-maximal lysis by CTL 501D/19
measure: pEC50
In plain terms, pEC50 is the concentration in mol/L turned into minus its base-10 logarithm.

// fetch pEC50 given entry VRIGHLYIL [SEQ ID NO:4]
10.00
